Conditions: in water, 283.16 K
VALUE KIND: solubility (mole fraction)
Respond using a number only.

Give the measured solubility (mole fraction) of Cc1nc2n(c(=O)c1CCN1CCC(c3noc4cc(F)ccc34)CC1)CCCC2 . 4.63e-08

###

Conditions: in water, 303.16 K
VALUE KIND: solubility (mole fraction)
Respond using a number only.

Give the measured solubility (mole fraction) of Cc1nc2n(c(=O)c1CCN1CCC(c3noc4cc(F)ccc34)CC1)CCCC2 . 1.38e-07

###

Conditions: in methanol, 283.16 K
VALUE KIND: solubility (mole fraction)
Respond using a number only.

Give the measured solubility (mole fraction) of Cc1nc2n(c(=O)c1CCN1CCC(c3noc4cc(F)ccc34)CC1)CCCC2 . 0.00239

The values you see were collected from BigSolDB 2.1.
